The measurements presented in this section are drawn from paper PMC2748668.

# measurement_target: human OATP1B1 (Homo sapiens)
# protocol_summary: Inhibition kinetic studies

[
  {
    "smiles_representation": "C[C@H](CCC(=O)NCCS(=O)(=O)O)[C@H]1CC[C@H]2[C@@H]3[C@H](O)C[C@@H]4C[C@H](O)CC[C@]4(C)[C@H]3C[C@H](O)[C@]12C",
    "measurement_target": "human OATP1B1 (Homo sapiens)",
    "reading_unit": "µM",
    "Ki": 11.4
  }
]

###

Record: Ki reported on human OATP1B1 (Homo sapiens).

[
  {
    "compound": "CN(CCOc1ccc(C[C@H](Nc2ccccc2C(=O)c2ccccc2)C(=O)O)cc1)c1ccccn1 [GW1929]",
    "Ki": "300 nM"
  },
  {
    "compound": "C[C@]12CC[C@@H]3c4ccc(OS(=O)(=O)O)cc4CC[C@H]3[C@@H]1CCC2=O [Estrone-3-sulfate]",
    "Ki": "200 nM"
  },
  {
    "compound": "CC(C)c1onc(-c2c(Cl)cccc2Cl)c1COc1ccc(/C=C/c2cccc(C(=O)O)c2)c(Cl)c1 [GW4064]",
    "Ki": "32400 nM"
  }
]

###

# measurement_target: human OATP1B1 (Homo sapiens)
# Sequence (Q9Y6L6 1-691): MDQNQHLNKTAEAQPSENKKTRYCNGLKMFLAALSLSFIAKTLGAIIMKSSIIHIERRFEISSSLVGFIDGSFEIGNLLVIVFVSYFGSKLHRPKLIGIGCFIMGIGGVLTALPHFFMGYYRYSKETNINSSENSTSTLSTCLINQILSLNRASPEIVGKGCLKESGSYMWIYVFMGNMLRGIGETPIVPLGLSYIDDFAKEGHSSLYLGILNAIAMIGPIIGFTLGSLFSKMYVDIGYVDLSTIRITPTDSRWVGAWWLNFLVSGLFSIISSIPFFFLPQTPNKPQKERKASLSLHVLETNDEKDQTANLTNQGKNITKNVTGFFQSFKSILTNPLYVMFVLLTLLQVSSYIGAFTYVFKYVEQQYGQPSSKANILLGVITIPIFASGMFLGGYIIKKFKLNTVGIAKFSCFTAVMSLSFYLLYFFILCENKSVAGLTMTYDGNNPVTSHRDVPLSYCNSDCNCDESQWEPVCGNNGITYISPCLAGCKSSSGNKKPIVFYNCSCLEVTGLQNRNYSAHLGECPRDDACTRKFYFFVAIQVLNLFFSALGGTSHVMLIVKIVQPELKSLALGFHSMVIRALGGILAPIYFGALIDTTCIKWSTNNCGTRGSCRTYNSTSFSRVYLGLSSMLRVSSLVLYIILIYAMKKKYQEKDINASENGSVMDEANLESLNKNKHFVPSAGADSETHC
# protocol_summary: cell-based
In plain terms, low Ki, meaning strictly below 8 µM, gives 1, and everything else gives 0.

[
  {
    "molecule": "CC[C@H](C)C(=O)O[C@H]1C[C@@H](C)C=C2C=C[C@H](C)[C@H](CC[C@@H]3C[C@@H](O)CC(=O)O3)[C@H]21",
    "class_name": 0
  },
  {
    "molecule": "C[C@H](CCC(=O)O)[C@H]1CC[C@H]2[C@@H]3CC[C@@H]4C[C@H](O)CC[C@]4(C)[C@H]3C[C@H](O)[C@]12C",
    "class_name": 1
  },
  {
    "molecule": "Clc1ccccc1C(c1ccccc1)(c1ccccc1)n1ccnc1",
    "class_name": 1
  },
  {
    "molecule": "C[C@H](CCC(=O)O)[C@H]1CC[C@H]2[C@@H]3C(=O)C[C@@H]4CC(=O)CC[C@]4(C)[C@H]3CC(=O)[C@]12C [Dehydrocholic acid]",
    "class_name": 0
  },
  {
    "molecule": "C[C@H](CCC(=O)O)[C@H]1CC[C@H]2[C@@H]3[C@H](O)C[C@@H]4C[C@H](O)CC[C@]4(C)[C@H]3CC[C@]12C",
    "class_name": 1
  },
  {
    "molecule": "Cc1cccc(Nc2cc(Cl)nc(SCC(=O)O)n2)c1C",
    "class_name": 1
  },
  {
    "molecule": "C[C@H](CCC(=O)NCC(=O)O)[C@H]1CC[C@H]2[C@@H]3[C@H](O)C[C@@H]4C[C@H](O)CC[C@]4(C)[C@H]3C[C@H](O)[C@]12C",
    "class_name": 0
  },
  {
    "molecule": "CC[C@H](C)C(=O)O[C@H]1C[C@H](O)C=C2C=C[C@H](C)[C@H](CC[C@@H](O)C[C@@H](O)CC(=O)O)[C@H]21",
    "class_name": 0
  },
  {
    "molecule": "CC(C)(Oc1ccc(CCNC(=O)c2ccc(Cl)cc2)cc1)C(=O)O [Bezafibrate]",
    "class_name": 0
  }
]
